assay: Intrinsic clearance in human liver microsomes at 0.1 to 0.2 umol/L incubated for 30 mins in presence of NADPH by LC-MS/MS analysis; format: ADME, Microsome; details: read-out: CLH
MEASURED ATTRIBUTE: CLint scaled (mL/min/kg)
Hi! Could you send only the number? It should be in mL/min/kg, unit omitted.

Solved cases (3 shown):
{"columns": ["CHEMICAL STRUCTURE", "CLint scaled [mL/min/kg]"],
 "data": [
  ["COc1ccc(CN2CCC(C(=O)Nc3ccc(C(=O)N4CCN(Cc5ccc(C(F)(F)F)cc5)CC4)cc3)CC2)cn1", 77],
  ["O=C(Nc1ccc(C(=O)N2CCN(Cc3ccc(C(F)(F)F)cc3)CC2)cc1)N1CCN(Cc2ccc(C(F)(F)F)cc2)CC1", 158],
  ["COc1ccc(CN2CCN(C(=O)Nc3ccc(C(=O)N4CCN(Cc5ccc(C(F)(F)F)cc5)CC4)cc3)CC2)cc1", 185]
]}

Next compound, CLint scaled to be filled in.
Give me measured CLint scaled, please, for this compound: `COc1ccc(CN2CCC(c3ccc4[nH]c(C(=O)N5CCN(Cc6ccc(C(F)(F)F)cc6)CC5)nc4c3)CC2)cn1.Cc1ccc(S(=O)(=O)O)cc1.Cc1ccc(S(=O)(=O)O)cc1`
61

###

assay: AUC (0 to 24 hrs) in Sprague-Dawley rat at 1 mg/kg, po by LC-MS/MS analysis; type: ADME, organism-based; parameters: time < 24 hr, dose 1 mg/kg, route oral; conditions: in vivo
MEASURED ATTRIBUTE: AUC(0-t) at 24 h (µg·h/mL)
Hi! Could you send only the number? It should be in µg·h/mL, unit omitted.

{"columns": ["CHEMICAL STRUCTURE", "AUC(0-t) at 24 h [µg·h/mL]"],
 "data": [
  ["COc1ccc(CN2CCC(c3ccc4[nH]c(C(=O)N5CCN(Cc6ccc(C(F)(F)F)cc6)CC5)nc4c3)CC2)cn1.Cc1ccc(S(=O)(=O)O)cc1.Cc1ccc(S(=O)(=O)O)cc1", 0.705]
]}

Give me measured AUC(0-t) at 24 h, please, for this molecule: `COc1ccc(CN2CCC(C(=O)Nc3ccc(C(=O)N4CCN(Cc5ccc(C(F)(F)F)cc5)CC4)cc3)CC2)cn1`
0.0133

###

The following compounds are shown together with reported AUC(0-t) at 24 h values.
assay: AUC (0 to 24 hrs) in Sprague-Dawley rat at 1 mg/kg, iv by LC-MS/MS analysis; format: ADME, organism-based; set-up: time < 24 hr, dose 1 mg/kg, route intravenous; settings: in vivo
Hi! Could you send only the number? It should be in ng·h/mL, unit omitted.

{"columns": ["CHEMICAL STRUCTURE", "MEASURED ATTRIBUTE", "RESULT"],
 "data": [
  ["COc1ccc(CN2CCC(c3ccc4[nH]c(C(=O)N5CCN(Cc6ccc(C(F)(F)F)cc6)CC5)nc4c3)CC2)cn1.Cc1ccc(S(=O)(=O)O)cc1.Cc1ccc(S(=O)(=O)O)cc1", "AUC(0-t) at 24 h", 887]
]}

Next compound, AUC(0-t) at 24 h to be filled in.
Give me measured AUC(0-t) at 24 h, please, for this compound: `COc1ccc(CN2CCC(C(=O)Nc3ccc(C(=O)N4CCN(Cc5ccc(C(F)(F)F)cc5)CC4)cc3)CC2)cn1`
123
